B1: glmS ribozyme (parent)
chain: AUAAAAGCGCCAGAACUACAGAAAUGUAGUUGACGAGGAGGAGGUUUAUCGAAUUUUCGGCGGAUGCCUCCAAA

# Variants of: B1
# ASSAY_NOTES: self-cleavage kobs at 10000 uM GlcN6P; higher = faster cleavage; RNA array
# CONDITION_DETAILS: with glucosamine-6-phosphate
Fewer inactive variants are shown than the library holds.
ATTRIBUTE_MEASURED: self-cleavage kobs at 10000 uM GlcN6P (s⁻¹)
Give bare numbers, in s⁻¹.

> print(dat)
   mutation.name                     attribute.measured  quantity.unit  result
1      U46G U65G  self-cleavage kobs at 10000 uM GlcN6P            s⁻¹  0.0019

Hi! Can you tell me self-cleavage kobs at 10000 uM GlcN6P for each of these variants?
1. A52U C68U
2. U30G C70G

1. 0.000236
2. 0.000127
